Biological target: HigA2Mut(14-25) (Vibrio cholerae, UniProt Q9KMA5, L14S;V15S;E16A;A17T;K18A;Q19S;H20G;S21A;E22T;G23A;K24S;L25S)
Experiment: ITC; 5 C; ITC: 20 mM sodium phosphate pH 7.0, 150 mM NaCl, 1 mM EDTA, 25 or 5 C; EMSA/footprint: 20 mM Tris pH 8, 200 mM NaCl; NMR: 20 mM sodium phosphate pH 6.8, 130 mM
Details: protein: recombinant; tags: C-terminal His6, uncleavable; chain copies: 2
METRIC_NAME: Kd
Hi, when you answer, please include the unit after the number. Thanks!

Query: Please give the measured Kd for this binder: Opr25 (dsDNA) DNA 1: ATCTGTACGCTTGGTGCGTACACTT DNA 2: AAGTGTACGCACCAAGCGTACAGAT
Result: 5.1 µM

Value source: paper PMC11006873
